tested on: IL-6; assay: Inhibition of IL-6 in LPS-stimulated THP-1 human monocyte cells (HTRF); type: cell-based; conditions: THP-1, printed beside >10 μM EC50, top concentration 10 μM, meaning not given, read-out: percentage in parentheses after EC50 >10
# reported inhibition at 10 µM; entries follow
readout-type: inhibition at 10 µM (%)

>>> reported_result("Fc1ccc(-c2cccc3[nH]c(-c4n[nH]c5ccc(C6=CCNCC6)cc45)cc23)cc1 [Compound 550]")
33.7
>>> reported_result("c1cncc(-c2cccc3[nH]c(-c4n[nH]c5ccc(-c6cncc(CN7CCCCC7)c6)cc45)cc23)c1 [Compound 99]")
50.5
>>> reported_result("Cc1ccncc1-c1ccc2[nH]nc(-c3cc4c(-c5ccncc5)cccc4[nH]3)c2c1 [Compound 117]")
38.6
>>> reported_result("CC(C)CC(=O)Nc1cncc(-c2ccc3[nH]nc(-c4cc5c(-c6ccc(F)cc6)cccc5[nH]4)c3c2)c1 [Compound 30]")
27.9
>>> reported_result("O=C(Nc1cncc(-c2ccc3[nH]nc(-c4cc5c(-c6cccc(F)c6)cccc5[nH]4)c3c2)c1)C1CCCCC1 [Compound 23]")
34.2
>>> reported_result("COc1cncc(-c2ccc3[nH]nc(-c4cc5c(-c6ccc(C)s6)cccc5[nH]4)c3c2)c1 [Compound 768]")
49.8
>>> reported_result("O=C(Nc1cncc(-c2ccc3[nH]nc(-c4cc5c(-c6cccc(F)c6)cccc5[nH]4)c3c2)c1)C1CC1 [Compound 20]")
44.7
>>> reported_result("O=C(Nc1cncc(-c2ccc3[nH]nc(-c4cc5c(-c6ccccc6F)cccc5[nH]4)c3c2)c1)C1CCCC1 [Compound 78]")
54.1
>>> reported_result("CCCC(=O)Nc1cncc(-c2ccc3[nH]nc(-c4cc5c(-c6ccc(F)cc6)cccc5[nH]4)c3c2)c1 [Compound 45]")
44.6
>>> reported_result("O=C(Cc1ccccc1)Nc1cncc(-c2ccc3[nH]nc(-c4cc5ccccc5[nH]4)c3c2)c1 [Compound 262]")
0
>>> reported_result("CCCCC(=O)Nc1cncc(-c2ccc3[nH]nc(-c4cc5c(-c6ccccn6)cccc5[nH]4)c3c2)c1 [Compound 159]")
39.3
>>> reported_result("Fc1ccc(-c2cccc3[nH]c(-c4n[nH]c5ccc(-c6cncc(CN7CCCC7)c6)cc45)cc23)cc1 [Compound 42]")
47.8
>>> reported_result("O=C(Nc1cncc(-c2ccc3[nH]nc(-c4cc5c(-c6ccc(F)cc6)cccc5[nH]4)c3c2)c1)c1ccccc1 [Compound 39]")
48.3
>>> reported_result("O=C(Nc1cncc(-c2ccc3[nH]nc(-c4cc5c(-c6ccccn6)cccc5[nH]4)c3c2)c1)c1ccccc1 [Compound 151]")
46.9
>>> reported_result("CC(C)(C)CC(=O)Nc1cncc(-c2ccc3[nH]nc(-c4cc5c(-c6ccccc6F)cccc5[nH]4)c3c2)c1 [Compound 72]")
35.3
